Biological target: NAD-dependent protein deacylase sirtuin-5, mitochondrial (Homo sapiens)
Sequence (Q9NXA8 whole entry): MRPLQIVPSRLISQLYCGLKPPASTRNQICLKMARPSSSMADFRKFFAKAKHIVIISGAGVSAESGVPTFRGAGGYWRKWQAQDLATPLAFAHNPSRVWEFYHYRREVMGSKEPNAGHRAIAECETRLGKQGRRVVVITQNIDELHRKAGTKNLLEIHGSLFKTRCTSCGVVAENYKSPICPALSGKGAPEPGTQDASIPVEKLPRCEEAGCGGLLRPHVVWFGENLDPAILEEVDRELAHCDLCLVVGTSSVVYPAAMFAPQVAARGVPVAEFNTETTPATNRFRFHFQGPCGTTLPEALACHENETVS
Assay: SIRT5 desuccinylase inhibitors, dose response, biochemical, fluorescence imaging, cherry-pick, set 5 (AID 720591);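 further: desuccinylation of succinyl peptide AMC substrate read as fluorescence after trypsin release; potency of inhibitors that lower fluorescence and may act on trypsin instead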
Active and inactive are the calls of the source. No stated cut-off is given here; in the data, actives have a measured AC50 and inactives only a lower limit.
Let's look at some molecules and their measured AC50.

Sample records with AC50:
O=C(O)CSc1ncnc2c1sc1nc(-c3ccccc3)c3c(c12)CCC3 | > 30 µM (inactive)
Cc1c(-c2ccc(OCCN3CCOCC3)cc2)c(=O)oc2ccc3ccccc3c12 | > 30 µM (inactive)
CCOC(=O)N1CCN(C(=O)c2cc(COc3ccc4ncccc4c3)on2)CC1 | > 30 µM (inactive)

Measured AC50 of `COc1ccccc1-c1c[nH]nc1-c1ccc(O)cc1O` : 21.6 µM (active)
